The reported measurements were obtained from the supplement of paper PMC6757056.

B1: library; a variant is named by its letters at N, in order (parent)
chain: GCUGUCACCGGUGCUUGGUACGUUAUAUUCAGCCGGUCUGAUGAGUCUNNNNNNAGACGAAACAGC

Variants of: B1
Assay: normalized RNA/DNA level with ligand (relative to sTRSVctl = 100) (log10 (% of sTRSVctl)); HEK293T overexpressing SLC46A1; ligand concentration (+) RNA-Seq: 6 mM; higher = less ribozyme self-cleavage, higher mRNA level
Conditions: with (6R,S)-folinic acid; ligand present: yes
PROPERTY_NAME: normalized RNA/DNA level with ligand (log10)

Sample answers from the record:
UUACUA ... 2.01
UGAGUU ... 1.99
CAGCUG ... 2.06
GACGAU ... 2
GAUAUU ... 2.02

So what does the record say about normalized RNA/DNA level with ligand (log10) for `GGAAUU` ? 2.06

Same again, this time with `CGCUGG` 2.02

Also `GUAACU` ? 2.03

What do we get for `UCUCUG` ? 1.96

What would you report for `CGCGCU` ? 2.05

Then this variant: `AGCUUC` 2.04

Further, for `GCUAUG` ? 2.02

What do we get for `CGCUUA` ? 2.01

Same question, `UGUCUU` this time 2.03

Next variant up: `UGCGUC` 2.04

Same read-out for `CGGACG` ? 2.02
